- tgt: p110β/p85α (Homo sapiens)
- Sequence (P42338 whole entry): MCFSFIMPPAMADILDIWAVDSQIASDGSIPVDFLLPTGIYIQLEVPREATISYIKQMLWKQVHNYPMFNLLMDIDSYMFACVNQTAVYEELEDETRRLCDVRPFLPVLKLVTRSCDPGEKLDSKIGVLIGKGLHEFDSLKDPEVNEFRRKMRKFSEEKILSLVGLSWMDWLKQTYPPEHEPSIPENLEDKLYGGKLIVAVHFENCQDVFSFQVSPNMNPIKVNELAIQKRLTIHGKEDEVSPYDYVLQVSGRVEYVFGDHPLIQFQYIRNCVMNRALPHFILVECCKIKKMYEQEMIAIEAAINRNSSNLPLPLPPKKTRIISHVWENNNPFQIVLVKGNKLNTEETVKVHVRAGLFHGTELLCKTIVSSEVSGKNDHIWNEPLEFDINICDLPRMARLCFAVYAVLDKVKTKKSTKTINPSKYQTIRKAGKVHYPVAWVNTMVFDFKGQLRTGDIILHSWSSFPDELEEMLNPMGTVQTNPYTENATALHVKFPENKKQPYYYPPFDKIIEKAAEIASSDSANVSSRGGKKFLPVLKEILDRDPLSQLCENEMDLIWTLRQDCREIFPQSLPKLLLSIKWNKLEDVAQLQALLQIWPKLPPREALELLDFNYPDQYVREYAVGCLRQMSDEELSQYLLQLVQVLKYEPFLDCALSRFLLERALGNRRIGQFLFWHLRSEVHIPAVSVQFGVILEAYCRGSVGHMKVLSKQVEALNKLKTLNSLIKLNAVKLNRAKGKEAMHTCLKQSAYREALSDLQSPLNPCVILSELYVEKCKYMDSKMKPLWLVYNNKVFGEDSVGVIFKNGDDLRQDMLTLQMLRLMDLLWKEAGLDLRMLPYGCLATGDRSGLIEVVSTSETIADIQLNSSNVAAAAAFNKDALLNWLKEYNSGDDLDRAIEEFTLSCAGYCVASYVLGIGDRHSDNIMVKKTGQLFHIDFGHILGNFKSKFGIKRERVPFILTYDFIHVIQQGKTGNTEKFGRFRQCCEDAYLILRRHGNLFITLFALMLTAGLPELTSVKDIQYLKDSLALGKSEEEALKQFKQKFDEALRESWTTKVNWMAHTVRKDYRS
- Sequence (P27986 2-724 partner): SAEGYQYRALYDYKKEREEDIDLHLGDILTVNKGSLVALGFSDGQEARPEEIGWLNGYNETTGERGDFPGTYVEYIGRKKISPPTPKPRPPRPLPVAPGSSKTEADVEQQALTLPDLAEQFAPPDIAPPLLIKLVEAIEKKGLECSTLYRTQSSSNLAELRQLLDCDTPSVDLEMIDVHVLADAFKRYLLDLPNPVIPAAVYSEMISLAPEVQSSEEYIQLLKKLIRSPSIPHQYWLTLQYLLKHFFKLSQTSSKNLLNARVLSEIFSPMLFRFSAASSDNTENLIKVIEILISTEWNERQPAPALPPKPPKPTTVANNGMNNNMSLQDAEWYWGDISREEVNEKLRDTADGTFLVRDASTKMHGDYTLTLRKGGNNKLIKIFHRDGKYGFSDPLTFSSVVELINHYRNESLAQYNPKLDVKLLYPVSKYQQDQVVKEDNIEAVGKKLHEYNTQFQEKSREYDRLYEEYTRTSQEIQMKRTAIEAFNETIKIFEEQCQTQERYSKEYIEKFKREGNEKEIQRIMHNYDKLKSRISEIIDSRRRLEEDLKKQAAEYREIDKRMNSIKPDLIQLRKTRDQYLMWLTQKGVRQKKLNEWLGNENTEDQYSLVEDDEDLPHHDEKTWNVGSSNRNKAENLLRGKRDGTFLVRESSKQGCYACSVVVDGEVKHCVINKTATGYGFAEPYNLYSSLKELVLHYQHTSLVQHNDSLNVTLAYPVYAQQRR
- assay procedure: Transcreener KINASE Assay, kinase inhibition of p110β/p85α
- Assay type: biochemical
- run parameters: 1 uM test compound
endpoint name: PI3Kβ IH % @ 1 uM

[[record]]
compound = "CC(Nc1ncnc2[nH]cnc12)c1cc2ncc(Cl)n2c(=O)n1-c1ccccc1 (stereo not shown) [Compound 115]"
endpoint_name = "PI3Kβ IH % @ 1 uM"
endpoint_result = "80.2%"


// each listed compound needs a value for PI3Kβ IH % @ 1 uM
1. C[C@H]1CN(c2nc(N)ncc2C#N)C1c1nn2ccc(Cl)c2c(=O)n1-c1ccc(F)cc1 (stereo partly shown) [Compound 432]
2. C[S+]([O-])c1c[nH]c2ncnc(N3CCC[C@H]3c3nn4ccc(F)c4c(=O)n3-c3ccccc3)c12 (stereo partly shown) [Compound 219]

Result string:
43.2%
75.1%

Query string: API: value(readout=PI3Kβ IH % @ 1 uM, system=p110β/p85α (Homo sapiens)) for record COc1nc(N)nc(N2CC[C@H]2c2nn3ccc(Cl)c3c(=O)n2-c2ccccc2)c1C#N [Compound 378]
Result string: 34.5%

The measured values listed here are drawn from patent US20150307520A1.
